Provide the recorded melting point for the entries that follow.

Any idea what its melting point is? The molecule is O=C(Nc1cccc(-c2ccccc2)c1)Nc1ccc2[nH]ccc2c1 [Example 46]
204 to 206 °C

Request the reported melting point associated with Cc1ccc(NC(=O)Nc2cccc3[nH]ccc23)cc1Cl [Example 65]
246 to 247 °C

So what's the measured melting point for this one? Cc1nc2cc(NC(=O)Nc3ccc(C)c(Cl)c3)ccc2s1 [Example 31]
230 to 232 °C

# query: melting point of entry Cc1nc2cc(NC(=O)Nc3ccc(Br)cc3)ccc2s1 [Example 26]
> 250 °C

Any idea what melting point was measured for Cc1nc2cc(NC(=O)Nc3ccc(Cl)c(C(F)(F)F)c3)ccc2[nH]1 [Example 48] ?
162 to 166 °C

Sample O=C(Nc1ccc(F)c([N+](=O)[O-])c1)Nc1cccc2[nH]ccc12 [Example 98] — what was its melting point?
248 to 251 °C

Entry O=C(Nc1ccc(Cl)c(C(F)(F)F)c1)Nc1cccc2[nH]c(C(F)(F)F)nc12 [Example 9] has what melting point?
165 to 169 °C

Given O=C(Nc1ccc(F)cc1)Nc1cccc2[nH]ccc12 [Example 35] , state its recorded melting point.
239 to 241 °C

Data request, read-out melting point, for O=C(Nc1ccc(Oc2ccccc2)cc1)Nc1cccc2cc[nH]c12 [Example 12]
216 to 218 °C

# get_value(readout='melting point', item= O=C(Nc1ccc(Cl)c(C(F)(F)F)c1)Nc1cccc2[nH]nnc12 [Example 4] )
232 to 235 °C

Requested read-out: melting point. Entry: O=C(Nc1ccc(Cl)c(C(F)(F)F)c1)Nc1ccc2[nH]ccc2c1 [Example 5]
234 to 235 °C

Give its melting point value. Item: O=C(Nc1ccc(F)cc1F)Nc1cccc2[nH]ccc12 [Example 64]
247 to 248 °C

Quick one: melting point for CC(=O)c1cccc(NC(=O)Nc2cccc3[nH]ccc23)c1 [Example 83] ?
205 to 207 °C

Param item = Cc1cccc(NC(=O)Nc2ccc3c(c2)S(=O)(=O)C=C3)c1 [Example 38] ; retrieve measured melting point.
219 to 222 °C

What does the record list as melting point for O=C(NCc1ccc(Br)cc1)Nc1cccc2[nH]ccc12 [Example 89] ?
199 to 202 °C

Bench note: what melting point did O=C(Nc1ccc(Br)cc1)Nc1ccc2[nH]ccc2c1 [Example 74] show?
> 250 °C

Can you share its melting point? I mean this molecule: O=C(Nc1cccc(C(F)(F)F)c1)Nc1ccc2c(c1)S(=O)(=O)C=C2 [Example 44]
> 250 °C

melting point lookup needed for Cc1cccc(NC(=O)Nc2ccc3[nH]ccc3c2)c1 [Example 70] , thanks.
250 °C

Recorded melting point for Cc1nc2cc(NC(=O)Nc3ccc(C)c(Cl)c3)ccc2[nH]1 [Example 51] , please?
200 to 204 °C

Which melting point is reported for this molecule? O=C(Nc1ccc(Br)cc1)Nc1cccc2[nH]ccc12 [Example 60]
238 to 240 °C

Given the entry Cc1nc2c(NC(=O)Nc3ccc(C(C)C)cc3)cccc2[nH]1 [Example 55] , report its measured melting point.
216 to 218 °C

Could you tell me which melting point is on file for CCOC(=O)c1cccc(NC(=O)Nc2cccc3[nH]ccc23)c1 [Example 85] ?
194 to 196 °C

Form field: reported melting point of O=C(Nc1cc(C(F)(F)F)ccc1Cl)Nc1cccc2[nH]ccc12 [Example 68]
211 to 213 °C

Given O=C(Nc1ccc(Cl)c(C(F)(F)F)c1)Nc1cccc2cc[nH]c12 [Example 7] , state its recorded melting point.
229 to 233 °C

Given the molecule O=C(NCc1cccc(F)c1)Nc1cccc2[nH]ccc12 [Example 99] , what is its reported melting point?
190 to 192 °C

Recorded melting point for COc1cccc(NC(=O)Nc2ccc3[nH]ccc3c2)c1 [Example 73] , please?
227 to 229 °C

Entry O=C(Nc1cccc2ccccc12)Nc1cccc2[nH]ccc12 [Example 62] : reported melting point = ?
> 250 °C
